Each recorded value in this set is attributed to ChEMBL document CHEMBL5620348.

- Tested on: Pseudomonas aeruginosa
- protocol: Antibacterial activity against multi-drug resistant Pseudomonas aeruginosa clinical isolate 1129 assessed as inhibition of bacterial growth by measuring minimum inhibitory concentration incubated for 18 to 20 hrs in presence of M9 medium by broth microdilution assay
- Assay type: functional
- settings: time 18-20 hrs
value.kind: MIC (µg/mL)

INSERT INTO assay_data (smiles_record, target_system, units_symbol, relation_qualifier, readout_value) VALUES
  ('CCn1cc(C(=O)O)c(=O)c2cc(F)c(N3CCNCC3)cc21', 'Pseudomonas aeruginosa', 'µg/mL', '=', 1),
  ('CC(C)=CCc1c(O)ccc(C(=O)/C=C/c2ccc(OCCCCCCOCc3cc(=O)c(O)cn3C)cc2)c1O', 'Pseudomonas aeruginosa', 'µg/mL', '=', 8),
  ('CC(C)=CCc1c(OCCCCCC(=O)NCc2cc(=O)c(O)cn2C)ccc(C(=O)/C=C/c2ccc(O)cc2)c1O', 'Pseudomonas aeruginosa', 'µg/mL', '=', 16),
  ('CC(C)=CCc1c(OCCCCn2cc(COCc3cc(=O)c(O)cn3C)nn2)ccc(C(=O)/C=C/c2ccc(O)cc2)c1O', 'Pseudomonas aeruginosa', 'µg/mL', '=', 16),
  ('CC(C)=CCc1c(O)ccc(C(=O)/C=C/c2ccc(OCCCOCc3cc(=O)c(O)cn3C)cc2)c1O', 'Pseudomonas aeruginosa', 'µg/mL', '=', 8),
  ('CC(C)=CCc1c(O)ccc(C(=O)/C=C/c2ccc(O)cc2)c1O', 'Pseudomonas aeruginosa', 'µg/mL', '>', 128),
  ('CC(C)=CCc1c(O)ccc(C(=O)/C=C/c2ccc(OCCCCCC(=O)NCc3cc(=O)c(O)cn3C)cc2)c1O', 'Pseudomonas aeruginosa', 'µg/mL', '=', 32),
  ('CC1(C)S[C@@H]2[C@H](NC(=O)[C@H](N)c3ccccc3)C(=O)N2[C@H]1C(=O)O', 'Pseudomonas aeruginosa', 'µg/mL', '>', 128),
  ('CC(C)=CCc1c(OCCCCn2cc(COCc3c(O)c(=O)cc(C)n3C)nn2)ccc(C(=O)/C=C/c2ccc(O)cc2)c1O', 'Pseudomonas aeruginosa', 'µg/mL', '=', 16),
  ('CC(C)=CCc1c(O)ccc(C(=O)/C=C/c2ccc(OCCCOCc3c(O)c(=O)cc(C)n3C)cc2)c1O', 'Pseudomonas aeruginosa', 'µg/mL', '=', 16),
  ('CC(C)=CCc1c(O)ccc(C(=O)/C=C/c2ccc(OCCCCCCOCc3c(O)c(=O)cc(C)n3C)cc2)c1O', 'Pseudomonas aeruginosa', 'µg/mL', '=', 8);

---

Let's look at some molecules and their measured MIC.
- Tested on: Pseudomonas aeruginosa
- protocol: Antibacterial activity against multi-drug resistant Pseudomonas aeruginosa clinical isolate 1121 assessed as inhibition of bacterial growth by measuring minimum inhibitory concentration incubated for 18 to 20 hrs in presence of M9 medium by broth microdilution assay
- Format: functional
- settings: time 18-20 hrs
value.kind: MIC

INSERT INTO results (molecule, target_system, readout_value) VALUES
  ('CC(C)=CCc1c(OCCCCn2cc(COCc3cc(=O)c(O)cn3C)nn2)ccc(C(=O)/C=C/c2ccc(O)cc2)c1O', 'Pseudomonas aeruginosa', '8 µg/mL'),
  ('CC(C)=CCc1c(O)ccc(C(=O)/C=C/c2ccc(OCCCOCc3c(O)c(=O)cc(C)n3C)cc2)c1O', 'Pseudomonas aeruginosa', '16 µg/mL'),
  ('CC(C)=CCc1c(OCCCCn2cc(COCc3c(O)c(=O)cc(C)n3C)nn2)ccc(C(=O)/C=C/c2ccc(O)cc2)c1O', 'Pseudomonas aeruginosa', '8 µg/mL'),
  ('CC(C)=CCc1c(O)ccc(C(=O)/C=C/c2ccc(O)cc2)c1O [ISOBAVACHALCONE]', 'Pseudomonas aeruginosa', '> 128 µg/mL'),
  ('CC(C)=CCc1c(OCCCCCC(=O)NCc2cc(=O)c(O)cn2C)ccc(C(=O)/C=C/c2ccc(O)cc2)c1O', 'Pseudomonas aeruginosa', '8 µg/mL'),
  ('CC(C)=CCc1c(O)ccc(C(=O)/C=C/c2ccc(OCCCOCc3cc(=O)c(O)cn3C)cc2)c1O', 'Pseudomonas aeruginosa', '8 µg/mL'),
  ('CC(C)=CCc1c(O)ccc(C(=O)/C=C/c2ccc(OCCCCCC(=O)NCc3cc(=O)c(O)cn3C)cc2)c1O', 'Pseudomonas aeruginosa', '16 µg/mL'),
  ('CC(C)=CCc1c(O)ccc(C(=O)/C=C/c2ccc(OCCCCCCOCc3c(O)c(=O)cc(C)n3C)cc2)c1O', 'Pseudomonas aeruginosa', '8 µg/mL');

---

- System: Pseudomonas aeruginosa
- protocol: Antibacterial activity against multi-drug resistant Pseudomonas aeruginosa clinical isolate 1121 assessed as inhibition of bacterial growth by measuring minimum inhibitory concentration incubated for 18 to 20 hrs in presence of M9 medium by broth microdilution assay
- Type: functional
- settings: time 18-20 hrs
value.kind: MIC (µg/mL)

INSERT INTO measurements (compound, relation_qualifier, readout_value) VALUES
  ('CC1(C)S[C@@H]2[C@H](NC(=O)[C@H](N)c3ccccc3)C(=O)N2[C@H]1C(=O)O [AMPICILLIN]', '>', 128),
  ('CC(C)=CCc1c(O)ccc(C(=O)/C=C/c2ccc(OCCCCCCOCc3cc(=O)c(O)cn3C)cc2)c1O', '=', 8),
  ('CCn1cc(C(=O)O)c(=O)c2cc(F)c(N3CCNCC3)cc21 [NORFLOXACIN]', '=', 0.5);
